GI50 values, listed per item
tested on: HL-60; assay: NCI tumour cell line growth inhibition, 48 h
Active and inactive are the calls of the source. No stated cut-off is given here; in the data, active = GI50 up to about 1.1 µM and inactive = higher. Where a SMILES comes first, the peptide text is derived from it. The star is where a group is joined. Fmoc = O=C(OCC1c2ccccc2-c2ccccc21)*; Boc = CC(C)(C)OC(=O)*

compound	GI50
COc1ccc(C(=O)N/N=C/c2c(C)n(C)n(-c3ccccc3)c2=O)cc1	> 100 µM (inactive)
Cc1cc(=O)oc2cc(OC(=O)N(C)C)c(Cl)cc12	54 µM (inactive)
COC(=O)C(Cc1c[nH]c2ccccc12)NC(=O)c1ccc(-c2ccc(Cl)cc2Cl)o1 (stereo not given)	10.5 µM (inactive)
Nc1nc(F)nc2c1ncn2C1OC(CO)C(O)C1O (stereo not given)	42.5 µM (inactive)
CC(Oc1ccc(OCC2CCCCC2)cc1)C(=O)O (stereo not given)	> 100 µM (inactive)
CCOC(=O)C1=C(Nc2ccc(Cl)c(Cl)c2)OC/C1=N\NS(=O)(=O)c1ccc(C)cc1	27.9 µM (inactive)
CN(C)CC1CCCc2ccccc2C1=O (stereo not given)	2.66 µM (inactive)
Cn1c2c3c(F)c(F)ccc3nc-2cc2ccccc21	13 µM (inactive)
O=C1CN(C(=O)c2ccccc2)Cc2[nH]c3ccccc3c21	> 100 µM (inactive)
Cc1ccccc1Nc1cn(COCc2ccccc2)c(=O)[nH]c1=O	> 100 µM (inactive)
CC(=O)n1nc(-c2ccc3ccccc3c2)nc1C	46 µM (inactive)
O=c1[nH]c2c(c(=O)[nH]1)SC(c1ccccc1)C2 (stereo not given)	> 100 µM (inactive)
CC(C)(C)OC(=O)NCCCCC(NC(=O)OCC1c2ccccc2-c2ccccc21)C(=O)N1CCCC1C(=O)NCC(N)=O (stereo not drawn) (Fmoc-Lys(Boc)-Pro-Gly-NH2; configuration not given here)	32.8 µM (inactive)
O=C(O)[C@H]1CCCN1CP(=O)(O)CN1CCC[C@@H]1C(=O)O	> 100 µM (inactive)
NC(=O)C1CCN(Cc2c(Cl)c(Cl)c(CN3CCC(C(N)=O)CC3)c(Cl)c2Cl)CC1	> 100 µM (inactive)

====

tested on: SW-620; experiment: NCI tumour cell line growth inhibition, 48 h
Active and inactive are the calls of the source. No stated cut-off is given here; in the data, active = GI50 up to about 1.1 µM and inactive = higher.
Labels: Yes (active), No (inactive)

molecule	assigned_label
COc1ccc2[nH]c3c(c2c1)CCn1c-3nc2ccccc2c1=O	No
CC(CCC[C@H](C)CO)[C@H]1[C@@H](O)C(O)C2[C@@H]3C[C@@H](O)C4(O)C[C@@H](O)CC[C@]4(C)C3CC[C@@]21C (some centres undefined)	No
Clc1cccc(/N=C/C=C/Nc2cccc(Cl)c2)c1	No
COC1C=C(NCC2(CO)CCC2)N=C(N)N1 (centres undefined)	No
O=C([O-])C[n+]1ccccc1.c1ccncc1	No
CC[C@]12C=CCN3CC[C@@]4(c5cc(N=O)c(OC)cc5N(C)[C@H]4[C@@](O)(C(=O)OC)[C@@H]1OC(C)=O)[C@@H]32	No
CCC1(O)C=CC(=O)C=C1	No
COC(=O)[C@H](C)N(C)C(=O)[C@H](C)N1[C@@H](c2ccccc2)COC1(C)C	No
CC(C)OC(=O)NNc1cccc(Cl)c1	No
C/N=N/N(C)C(=O)NC	No
CCC1=CCC(P(=O)(c2ccccc2)c2ccccc2)CC1C (centres undefined)	No
O=C(O)[C@H]1CCCN1CP(=O)(O)CN1CCC[C@@H]1C(=O)O	No
CC(=O)O[C@H]1C[C@](C)(O)[C@@]23CC([C@@H](OC(=O)C(C)(C)O)[C@@H](OC(C)=O)C2(COC(=O)c2ccccc2)[C@H]1OC(C)=O)C(C)(C)O3 (some centres undefined)	No
COc1ccc(OC)c(-c2cn3c(n2)sc2ccccc23)c1	No
Cc1ccccc1-n1c(=O)c2ncn(C3CCCO3)c2n(-c2ccccc2C)c1=S (centres undefined)	No
CN1C(=O)C(C)(C)NS1(=O)=O	No
Oc1cc2c(cc1O)-c1[nH]ncc1CC2	No
O=c1[nH]nc(Cc2ccc(Cl)cc2)n1/N=C\CC/C=N\n1c(Cc2ccc(Cl)cc2)n[nH]c1=O	No
CCN(CC)N1C(=O)[N-][N+](CC)(CC)C1=O	No
CC(C)(C)c1ccc(OCCOCCOc2ccc(C(C)(C)C)cc2S(=O)(=O)Nc2ccc([N+](=O)[O-])cc2)c(S(=O)(=O)Nc2ccc([N+](=O)[O-])cc2)c1	No
COC1=CC(=O)c2c(cc(COP(=O)(OCC3OC(n4cc(F)c(=O)[nH]c4=O)CC3O)N(C)CCCCCl)n2C)C1=O (centres undefined)	Yes
CC[N+]1(C)CCC(O)(c2ccc(Cl)c(Cl)c2)C(C(=O)c2ccc(Cl)c(Cl)c2)C1 (centres undefined)	No
N[C@H]1C2C3CC4C5CC(C42)C1(c1ccccc1)C53 (some centres undefined)	No
CNc1nnc(CNc2ccc(-c3nnc(NC)n3N)cc2)n1N	No
CCCN(CCC)c1c([N+](=O)[O-])cc(S(N)(=O)=O)cc1[N+](=O)[O-]	No
O=C1Nc2nccnc2C(=O)N2CCC[C@@H]12	No
[O-][n+]1onc2c1CCC(=N\O)/C2=N/Nc1ccccc1	No
C[S+]([O-])c1cc(=O)c2ccccc2s1 (centres undefined)	No
CN(Cc1ccccc1)C(=O)c1ccccc1C(=O)O	No
CC(=O)OCC1=C(COC(C)=O)C(=O)c2c(O)ccc(O)c2C1=O	No
COc1ccc2[nH]c(Cl)c(/C=C3/C(=O)Nc4cc(C)c(OC)cc43)c2c1	No
CC1(C)CC2=NOS3=C2C(=NO3)C1c1ccccn1 (centres undefined)	No
c1cncc(C2N3CCCCC3[C@@H]3c4[nH]c5ccccc5c4CCN23)c1 (some centres undefined)	No
C[C@]12CC/C(=N\OCCN3CCCCC3)C=C1CCC1C2CC[C@@]2(C)C1CC[C@]2(C)O (some centres undefined)	No

====

tested on: M19-MEL; assay: NCI tumour cell line growth inhibition, 48 h
The source made the active and inactive calls. Rule as the data show it: active = GI50 up to about 1.1 µM and inactive = higher.
Labels: label 1 (active), label 0 (inactive)

>>> df
                                    compound   system  assigned_label
 0  C/C(CN1C(=O)c2ccccc2C1=O)=N\NS(=O)(=O)c1ccc(C)cc1  M19-MEL         label 0
 1    COc1ccc2oc3c(OC)c(OC)c(OC)cc3c(=O)c2c1  M19-MEL         label 0
 2             N/C(=N\O)N/N=C/c1ccc(O)c(O)c1  M19-MEL         label 0
 3     CCN(CCCl)CCCNc1c2ccccc2nc2ccc(OC)cc12  M19-MEL         label 1
 4  O=C(Nc1nc2ncn(CCNCc3ccccc3)c2c(=O)[nH]1)c1ccccc1  M19-MEL         label 0
 5  CCCCCCCCCCCCCCCC/C(C(=O)OC)=C(/O)C(=O)OCC  M19-MEL         label 0
 6  CC(=O)N(/N=C\c1ccc([N+](=O)[O-])cc1)c1ccccc1  M19-MEL         label 0
 7          Oc1nc(-c2ccccc2)cc(-c2ccccc2O)n1  M19-MEL         label 0
 8  COC(COC(N)=O)C1=C(N2CC2)C(=O)C(C)=C(N2CC2)C1=O (stereo unspecified)  M19-MEL         label 1
 9                       O=C1CSc2sc(=S)sc2S1  M19-MEL         label 0
10  Cc1c(-c2coc(-c3ccc(Cl)cc3)n2)c(=O)n(-c2ccccc2)n1C  M19-MEL         label 0

====

system: A498; test: NCI tumour cell line growth inhibition, 48 h
Calls of active or inactive are those of the source. No stated cut-off is given here; in the data, active = GI50 up to about 1.1 µM and inactive = higher.
Labels: 1 (active), 0 (inactive)

In [3]: df
Out[3]:
                                    molecule  assigned_label
 0  C(CCC[Te][Te]CCCCCCOC1CCCCO1)CCOC1CCCCO1 (centres undefined)               0
 1  COC1=CC(=O)C2[C@H]3Cc4ccccc4[C@H]3C2(C)C1=O (some centres undefined)               0
 2  Cc1c(N2C(=O)CS(=O)(=O)C2c2cccc(Oc3ccccc3)c2)c(=O)n(-c2ccccc2)n1C (centres undefined)               1
 3  COc1ccc(/C=N/n2c(Cc3ccccc3)n[nH]c2=O)cc1               0
 4  C#CCn1c(=O)c(I)cn(/C(=C\C(=O)OCC)C(=O)OCC)c1=O               0
 5  O=C1c2cccc([N+](=O)[O-])c2C(=O)c2nccnc21               0
 6  CN(C)C(=S)/N=c1\ss/c(=N\S(=O)(=O)c2ccccc2)n1-c1ccccc1               0
 7  COC(=O)C1(Cc2ccc3c(c2)CCC3)Cc2cc3c(cc2C1)CCC3               0
 8         COc1cc2c(c(O)c1C)C(=O)C(Cl)=CC2=O               0
 9  Cc1cc(-c2cc(C(C)(C)C)c(O)c(C(C)(C)C)c2)c(C)cc1-c1cc(C(C)(C)C)c(O)c(C(C)(C)C)c1               0
10  Cc1ccc(N2C(=O)C3C=CC(n4[nH]c(=O)n(Cc5ccccc5)c4=O)CC3C2=O)cc1 (centres undefined)               0
11             Nc1nc(N)c(CCCCc2ccccc2)c(N)n1               0
12  COC(=O)[C@@H]1C[C@H](c2ccc(OC)c(OC)c2)OC1=O.COC(=O)[C@H]1C[C@H](c2ccc(OC)c(OC)c2)OC1=O               0
13    CC(C)(C)OC(=O)[C@H]1CCC(=S)N1Cc1ccccc1               0
